So I've got a bunch of compounds here, and I need their uptake HEART values.
Test system: B16F0 melanoma tumour
Test: Biodistribution in B16 melanoma bearing mice
Format: in vivo, C57BL/6J mice
Conditions: B16 tumour, C57BL/6J mice, 1 h, mean ± SD, n = 5
Give bare numbers, in % ID/g.

Below are worked cases with known answers.
CCN(CC)CCNC(=O)c1cncc(I)c1 [[^123I]11]
0.8
O=C(c1cncc(I)c1)N1CCN(Cc2ccccc2)CC1 [[^123I]20]
0.49
CCCN(CCC)CCCCNC(=O)c1cncc(I)c1 [[^123I]17]
1.9

Identify measured uptake HEART corresponding to CCN(CC)CCNC(=O)c1ccc(I)nc1 [[^123I]14]
2.3

Each recorded value in this set is attributed to patent US20110178396A1.
